# systemUnderTest: muscarinic receptors
# experimentalProtocol: Radio ligand binding, displacement of muscarinic agonist 3H-Oxotremorine-M (3H-OXO-M)
# Set-up: species or system rat (Hooded Lister)
# testContext: displacement of 2 nM 3H-OXO-M, rat cerebral cortex homogenate, 37° C., 30 min, 2 mM magnesium chloride
Structures can show the parent of a compound that is named as a salt.
# pIC50 values compiled below
Schema: pIC50 number; meaning minus log10 of the concentration expressed in molar units.

# count of solved cases: 2
IN: Requested field: pIC50. Item: CCON=C[C@@H]1CN2CC[C@@H]1C2 (relative stereo) [E 8, oxalate salt]
OUT: 6.80

IN: Requested field: pIC50. Item: CON=CC1CN2CCC1CC2 (racemic) [E 2, hydrochloride salt]
OUT: 7.02

More entries:
IN: Requested field: pIC50. Item: CON=C(C)C1CN2CCC1C2 (racemic) [E 13, oxalate salt]
OUT: 7.00

IN: Requested field: pIC50. Item: CON=CC12CCN(CC1)C2 [E 19, hydrochloride salt]
OUT: 6.93

IN: Requested field: pIC50. Item: CON=CC12CCCN(CC1)C2 (mixture of isomers) [E 1, hydrochloride salt]
OUT: 7.14

IN: Requested field: pIC50. Item: CON=C(C)C1CN2CCC1CC2 (mixture of isomers) [E 3, hydrochloride salt]
OUT: 7.16

Data origin, for the record: patent US5110828A
